# System: Lefty1
# assay-protocol: Lefty1 protein binding to printed compounds – biochemical, small-molecule microarray, 635/667 nm fluorescence, primary screen (AID 1139)
# cond: fluorescence 635/667, higher = more signal
compounds and their reported composite z-score
metric: composite z-score

compound=COC(=O)[C@@]1(Cc2ccc(OC)cc2)[C@H]2c3cc(C(=O)N4CCCC4)n(Cc4ccc(C(F)(F)F)nc4)c3C[C@H]2CN1C(=O)c1ccccc1 recorded_value=0.087
compound="CCCCC(O)C1C=CC2C(=O)N(c3ccccc3)C(=O)C2N1Nc1ccc(C#N)cc1 (configuration not stated)" recorded_value=-0.295
compound=Cc1ccc(S[C@]2(C(=O)NCC(F)(F)F)CC(=O)N(Cc3ccccc3C(F)(F)F)[C@@H]2c2ccc(CO)cc2)cc1 recorded_value=-1.44
compound=CCCC=C(CCC)[C@@H](NC(=O)OCC(C)C)c1ccc(C(=O)OC)cc1 recorded_value=0.704
compound="CN1C(=O)C2C(C1=O)C1C=C(CCCO)C2C(C2CC2)N1Cc1cccc(OC(F)(F)F)c1 (configuration not stated)" recorded_value=0.0613
compound=COCCCNC(=O)[C@@]1(CCS(=O)(=O)c2ccccc2)COC(c2ccc(OCCCO)cc2)=N1 recorded_value=-0.0951
compound=CC1=C([C@H](O)CCc2ccccc2)[C@H](CO)n2c(=O)n(-c3ccccc3)c(=O)n2C1 recorded_value=0.27
